Biological target: M2 (Homo sapiens, UniProt P08172)
Test: biochemical
Assay type: binding
Conditions: [3H] radioligand QNB; Human, Cloned; read-out: Ki

smiles_notation	tested_system	Ki
CC(C)[C@@H](CN1CC[C@@](C)(c2cccc(O)c2)[C@@H](C)C1)NC(=O)[C@H]1Cc2ccc(O)cc2CN1	M2 (Homo sapiens, UniProt P08172)	≥ 10 µM

###

Target: α1B (Homo sapiens, UniProt P35368)
Sequence (P35368 whole entry): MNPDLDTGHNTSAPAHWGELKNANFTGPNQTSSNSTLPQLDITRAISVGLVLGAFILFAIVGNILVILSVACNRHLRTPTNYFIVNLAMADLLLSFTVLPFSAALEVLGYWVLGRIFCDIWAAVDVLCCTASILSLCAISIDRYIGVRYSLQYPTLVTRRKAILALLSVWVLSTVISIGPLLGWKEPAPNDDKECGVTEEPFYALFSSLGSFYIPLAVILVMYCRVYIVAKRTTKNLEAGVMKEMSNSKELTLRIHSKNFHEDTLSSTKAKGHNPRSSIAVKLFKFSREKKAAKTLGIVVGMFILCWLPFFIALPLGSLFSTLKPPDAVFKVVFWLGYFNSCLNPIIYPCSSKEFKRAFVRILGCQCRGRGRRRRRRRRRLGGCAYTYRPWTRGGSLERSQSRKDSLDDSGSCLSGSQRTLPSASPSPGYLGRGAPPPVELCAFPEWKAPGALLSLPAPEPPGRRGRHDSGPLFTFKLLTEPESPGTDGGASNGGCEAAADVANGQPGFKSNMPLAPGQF
Test: Radioligand displacement, α1B
Format: binding
Conditions: [3H] radioligand Prazosin; Human, Cloned; read-out: Ki
pKi: −log10 of the molar value.

smiles_notation	pKi
CC(C)[C@@H](CN1CC[C@@](C)(c2cccc(O)c2)[C@@H](C)C1)NC(=O)[C@H]1Cc2ccc(O)cc2CN1	5.32

###

Target: α2C-adrenoceptor (α2C-AR) (Homo sapiens, UniProt P18825)
Sequence (P18825 whole entry): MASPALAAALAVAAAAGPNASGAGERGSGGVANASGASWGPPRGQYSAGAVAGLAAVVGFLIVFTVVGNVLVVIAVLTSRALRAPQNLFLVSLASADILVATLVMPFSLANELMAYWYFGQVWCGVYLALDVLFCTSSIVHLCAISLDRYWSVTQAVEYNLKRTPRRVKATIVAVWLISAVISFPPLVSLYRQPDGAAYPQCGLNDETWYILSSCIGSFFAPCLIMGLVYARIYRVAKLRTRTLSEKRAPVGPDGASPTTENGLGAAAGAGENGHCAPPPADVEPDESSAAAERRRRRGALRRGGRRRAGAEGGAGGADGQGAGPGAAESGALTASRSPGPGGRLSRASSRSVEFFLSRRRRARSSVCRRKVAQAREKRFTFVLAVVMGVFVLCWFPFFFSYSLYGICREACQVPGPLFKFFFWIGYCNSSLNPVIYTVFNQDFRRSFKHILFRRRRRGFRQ
Assay: Radioligand displacement, α2C
Conditions: Ki, [3H] radioligand Rauwolscine; Human, Cloned
Listed here: items and their measured Ki.
parameter: Ki

smiles_notation	experimental_result
N=C(N)Nc1ccc2[nH]c3c(c2c1)C[C@@]1(O)[C@H]2Cc4ccc(O)c5c4[C@@]1(CCN2CC1CC1)[C@H]3O5	2230 nM
Oc1ccc2c3c1O[C@H]1c4[nH]c5c(c4C[C@@]4(O)[C@@H](C2)N(CC2CC2)CC[C@]314)C[C@@]1(O)[C@H]2Cc3ccc(O)c4c3[C@@]1(CCN2CC1CC1)[C@H]5O4	626 nM

###

Molecular target: 5-HT6 (Homo sapiens)
Sequence (P50406 whole entry): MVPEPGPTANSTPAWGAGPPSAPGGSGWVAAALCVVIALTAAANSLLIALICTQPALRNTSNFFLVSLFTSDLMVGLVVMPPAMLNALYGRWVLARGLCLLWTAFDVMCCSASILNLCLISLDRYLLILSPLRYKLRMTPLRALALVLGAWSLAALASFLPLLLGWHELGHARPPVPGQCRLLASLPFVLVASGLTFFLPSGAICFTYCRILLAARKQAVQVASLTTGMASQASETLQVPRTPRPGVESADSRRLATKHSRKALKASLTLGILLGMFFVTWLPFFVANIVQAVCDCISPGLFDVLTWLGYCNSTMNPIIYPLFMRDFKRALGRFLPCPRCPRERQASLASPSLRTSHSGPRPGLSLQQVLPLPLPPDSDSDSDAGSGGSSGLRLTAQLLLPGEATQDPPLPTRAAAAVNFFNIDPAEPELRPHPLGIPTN
Experiment: Radioligand displacement, 5-HT6
Format: binding
Settings: [3H] radioligand LSD; Human, Cloned; read-out: Ki
pKi: −log10 of the molar value.
parameter: pKi

compound	experimental_result
CC(C)[C@@H](CN1CC[C@@](C)(c2cccc(O)c2)[C@@H](C)C1)NC(=O)[C@H]1Cc2ccc(O)cc2CN1 [JDTic]	≤ 5.00

###

Target: H2 (Homo sapiens, UniProt P25021)
Sequence (P25021 whole entry): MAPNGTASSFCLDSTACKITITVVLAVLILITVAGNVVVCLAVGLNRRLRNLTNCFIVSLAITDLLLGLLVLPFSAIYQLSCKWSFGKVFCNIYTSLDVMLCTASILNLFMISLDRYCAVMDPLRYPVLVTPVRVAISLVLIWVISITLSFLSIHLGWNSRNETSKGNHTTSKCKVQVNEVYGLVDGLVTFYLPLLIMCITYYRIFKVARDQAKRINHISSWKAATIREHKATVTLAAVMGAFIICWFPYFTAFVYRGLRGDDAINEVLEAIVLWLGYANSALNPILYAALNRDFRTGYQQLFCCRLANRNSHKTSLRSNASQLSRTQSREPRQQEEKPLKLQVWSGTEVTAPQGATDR
Test: Radioligand displacement, H2
pKi: −log10 of the molar value.
Listed here: items and their measured pKi.

smiles_notation	pKi
N=C(N)Nc1ccc2[nH]c3c(c2c1)C[C@@]1(O)[C@H]2Cc4ccc(O)c5c4[C@@]1(CCN2CC1CC1)[C@H]3O5	≤ 5.00
Oc1ccc2c3c1O[C@H]1c4[nH]c5c(c4C[C@@]4(O)[C@@H](C2)N(CC2CC2)CC[C@]314)C[C@@]1(O)[C@H]2Cc3ccc(O)c4c3[C@@]1(CCN2CC1CC1)[C@H]5O4	≤ 5.00

###

Target: α1B (Homo sapiens, UniProt P35368)
Assay: Radioligand displacement, α1B
Type: binding
Conditions: binding curve File S1 (JDTic page); Alpha1B Receptor; [125I]HEAT (0.12 nM); read-out: Ki

smiles_notation	tested_system	Ki
CC(C)[C@@H](CN1CC[C@@](C)(c2cccc(O)c2)[C@@H](C)C1)NC(=O)[C@H]1Cc2ccc(O)cc2CN1	α1B (Homo sapiens, UniProt P35368)	4.81 µM

###

Molecular target: UniProt:P50406
Experiment: Radioligand displacement, 5-HT6
Format: binding
Listed here: items and their measured Ki.

molecule	Ki
N=C(N)Nc1ccc2[nH]c3c(c2c1)C[C@@]1(O)[C@H]2Cc4ccc(O)c5c4[C@@]1(CCN2CC1CC1)[C@H]3O5 [GNTI, 5′-guanidinonaltrindole]	≥ 10 µM
Oc1ccc2c3c1O[C@H]1c4[nH]c5c(c4C[C@@]4(O)[C@@H](C2)N(CC2CC2)CC[C@]314)C[C@@]1(O)[C@H]2Cc3ccc(O)c4c3[C@@]1(CCN2CC1CC1)[C@H]5O4 [nor-BNI, Nor-binaltorphimine]	≥ 10 µM

###

Biological target: β2 (Homo sapiens, UniProt P07550)
Sequence (P07550 whole entry): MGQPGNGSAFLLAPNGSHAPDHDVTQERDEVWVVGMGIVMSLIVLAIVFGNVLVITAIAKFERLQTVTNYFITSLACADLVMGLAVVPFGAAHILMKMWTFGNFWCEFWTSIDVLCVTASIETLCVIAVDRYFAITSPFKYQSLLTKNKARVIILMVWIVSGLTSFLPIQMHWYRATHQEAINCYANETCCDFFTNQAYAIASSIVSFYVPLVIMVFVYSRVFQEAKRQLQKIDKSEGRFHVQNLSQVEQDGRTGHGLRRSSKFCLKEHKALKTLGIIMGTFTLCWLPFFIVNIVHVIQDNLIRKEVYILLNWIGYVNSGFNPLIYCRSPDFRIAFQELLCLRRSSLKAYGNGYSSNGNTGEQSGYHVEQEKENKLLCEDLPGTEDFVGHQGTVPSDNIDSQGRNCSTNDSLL
Test: Radioligand displacement, β2
Assay type: binding
parameter: Ki

smiles_notation	parameter	experimental_result
N=C(N)Nc1ccc2[nH]c3c(c2c1)C[C@@]1(O)[C@H]2Cc4ccc(O)c5c4[C@@]1(CCN2CC1CC1)[C@H]3O5	Ki	≥ 10 µM
Oc1ccc2c3c1O[C@H]1c4[nH]c5c(c4C[C@@]4(O)[C@@H](C2)N(CC2CC2)CC[C@]314)C[C@@]1(O)[C@H]2Cc3ccc(O)c4c3[C@@]1(CCN2CC1CC1)[C@H]5O4	Ki	≥ 10 µM

###

Molecular target: M3 (Homo sapiens, UniProt P20309)
Experiment: Radioligand displacement, M3
Type: binding
Settings: [3H] radioligand QNB; Human, Cloned; read-out: Ki

compound	tested_system	Ki
CC(C)[C@@H](CN1CC[C@@](C)(c2cccc(O)c2)[C@@H](C)C1)NC(=O)[C@H]1Cc2ccc(O)cc2CN1 [JDTic]	M3 (Homo sapiens, UniProt P20309)	≥ 10 µM

###

Molecular target: σ1 (Rattus norvegicus, UniProt Q9R0C9)
Sequence (Q9R0C9 whole entry): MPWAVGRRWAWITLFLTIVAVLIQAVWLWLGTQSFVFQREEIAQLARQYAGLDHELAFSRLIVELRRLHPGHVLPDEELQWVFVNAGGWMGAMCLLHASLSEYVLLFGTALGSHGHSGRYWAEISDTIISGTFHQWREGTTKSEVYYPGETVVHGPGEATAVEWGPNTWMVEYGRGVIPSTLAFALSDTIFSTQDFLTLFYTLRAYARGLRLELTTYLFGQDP
Assay: Radioligand displacement, σ1
Format: binding
Details: σ1; radioligand displacement (Table 1); read-out: K i

smiles_notation	Ki [µM]
CC(C)[C@@H](CN1CC[C@@](C)(c2cccc(O)c2)[C@@H](C)C1)NC(=O)[C@H]1Cc2ccc(O)cc2CN1	1.9

###

Molecular target: SERT (Homo sapiens)
Assay: Radioligand displacement, SERT
Type: binding
Settings: [3H] radioligand Citalopram; Human, Cloned; read-out: Ki
pKi: −log10 of the molar value.
parameter: pKi

smiles_notation	experimental_result
CC(C)[C@@H](CN1CC[C@@](C)(c2cccc(O)c2)[C@@H](C)C1)NC(=O)[C@H]1Cc2ccc(O)cc2CN1	≤ 5.00

###

Listed here: items and their measured pKi.
Biological target: D1 (Homo sapiens, UniProt P21728)
Sequence (P21728 whole entry): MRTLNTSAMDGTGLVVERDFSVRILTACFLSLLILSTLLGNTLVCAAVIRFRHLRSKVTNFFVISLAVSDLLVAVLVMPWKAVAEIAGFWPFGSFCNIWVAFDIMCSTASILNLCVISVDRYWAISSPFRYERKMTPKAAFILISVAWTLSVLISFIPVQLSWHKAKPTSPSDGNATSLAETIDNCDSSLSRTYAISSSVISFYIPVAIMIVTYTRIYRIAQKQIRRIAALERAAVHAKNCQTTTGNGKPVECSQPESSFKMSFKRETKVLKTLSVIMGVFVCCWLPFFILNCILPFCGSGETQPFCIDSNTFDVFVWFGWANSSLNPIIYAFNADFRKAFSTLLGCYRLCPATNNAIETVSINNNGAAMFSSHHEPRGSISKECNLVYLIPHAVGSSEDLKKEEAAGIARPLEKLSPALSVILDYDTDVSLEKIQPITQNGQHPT
Assay: Radioligand displacement, D1
Format: binding
pKi: −log10 of the molar value.

molecule	tested_system	pKi
Oc1ccc2c3c1O[C@H]1c4[nH]c5c(c4C[C@@]4(O)[C@@H](C2)N(CC2CC2)CC[C@]314)C[C@@]1(O)[C@H]2Cc3ccc(O)c4c3[C@@]1(CCN2CC1CC1)[C@H]5O4 [nor-BNI, Nor-binaltorphimine]	D1 (Homo sapiens, UniProt P21728)	≤ 5.00
N=C(N)Nc1ccc2[nH]c3c(c2c1)C[C@@]1(O)[C@H]2Cc4ccc(O)c5c4[C@@]1(CCN2CC1CC1)[C@H]3O5 [GNTI, 5′-guanidinonaltrindole]	D1 (Homo sapiens, UniProt P21728)	≤ 5.00

###

Target: DAT (Homo sapiens, UniProt Q01959)
Sequence (Q01959 whole entry): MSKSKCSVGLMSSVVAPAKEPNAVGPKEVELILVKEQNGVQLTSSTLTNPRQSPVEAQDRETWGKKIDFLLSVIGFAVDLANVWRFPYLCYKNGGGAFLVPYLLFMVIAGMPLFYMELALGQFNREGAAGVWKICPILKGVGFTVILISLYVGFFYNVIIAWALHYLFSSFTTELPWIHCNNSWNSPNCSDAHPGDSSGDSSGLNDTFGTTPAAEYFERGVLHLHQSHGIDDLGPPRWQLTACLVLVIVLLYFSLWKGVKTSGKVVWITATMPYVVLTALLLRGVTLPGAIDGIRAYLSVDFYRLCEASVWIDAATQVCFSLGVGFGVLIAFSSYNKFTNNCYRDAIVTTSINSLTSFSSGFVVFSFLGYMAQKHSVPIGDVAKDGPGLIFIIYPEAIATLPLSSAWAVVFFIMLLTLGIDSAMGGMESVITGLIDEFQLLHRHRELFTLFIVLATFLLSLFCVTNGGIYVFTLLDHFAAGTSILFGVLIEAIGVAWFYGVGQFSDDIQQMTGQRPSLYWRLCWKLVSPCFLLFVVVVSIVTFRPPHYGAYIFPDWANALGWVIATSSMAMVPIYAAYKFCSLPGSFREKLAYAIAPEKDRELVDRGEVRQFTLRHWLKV
Experiment: Radioligand displacement, DAT
Details: Ki, binding curve File S1; Dopamine Transporter; [3H]WIN35428 (3 nM); Transporter Binding Buffer
parameter: Ki

smiles_notation	experimental_result
CC(C)[C@@H](CN1CC[C@@](C)(c2cccc(O)c2)[C@@H](C)C1)NC(=O)[C@H]1Cc2ccc(O)cc2CN1	4.37 µM

###

Molecular target: UniProt P35462
Experiment: Radioligand displacement, D3
Type: binding
Conditions: [3H] radioligand N-Methylspiperone; Human, Cloned; read-out: Ki

smiles_notation	Ki
CC(C)[C@@H](CN1CC[C@@](C)(c2cccc(O)c2)[C@@H](C)C1)NC(=O)[C@H]1Cc2ccc(O)cc2CN1	≥ 10 µM

###

Listed here: items and their measured Ki.
Biological target: UniProtKB P13945
Sequence (P13945 whole entry): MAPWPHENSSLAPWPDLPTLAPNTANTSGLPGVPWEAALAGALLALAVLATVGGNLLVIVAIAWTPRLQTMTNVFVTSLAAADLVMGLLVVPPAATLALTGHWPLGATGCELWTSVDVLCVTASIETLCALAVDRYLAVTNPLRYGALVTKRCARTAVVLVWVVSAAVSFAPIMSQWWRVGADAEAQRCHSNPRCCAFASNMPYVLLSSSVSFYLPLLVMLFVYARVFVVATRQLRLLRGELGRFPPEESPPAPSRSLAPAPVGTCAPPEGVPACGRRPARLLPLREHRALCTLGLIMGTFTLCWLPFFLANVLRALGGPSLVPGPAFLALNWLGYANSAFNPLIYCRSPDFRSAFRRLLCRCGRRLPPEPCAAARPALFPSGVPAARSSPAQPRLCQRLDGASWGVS
Assay: Radioligand displacement, β3
Type: binding

compound	tested_system	Ki
Oc1ccc2c3c1O[C@H]1c4[nH]c5c(c4C[C@@]4(O)[C@@H](C2)N(CC2CC2)CC[C@]314)C[C@@]1(O)[C@H]2Cc3ccc(O)c4c3[C@@]1(CCN2CC1CC1)[C@H]5O4 [nor-BNI, Nor-binaltorphimine]	UniProtKB P13945	≥ 10 µM
N=C(N)Nc1ccc2[nH]c3c(c2c1)C[C@@]1(O)[C@H]2Cc4ccc(O)c5c4[C@@]1(CCN2CC1CC1)[C@H]3O5 [GNTI, 5′-guanidinonaltrindole]	UniProtKB P13945	≥ 10 µM

###

Listed here: items and their measured pKi.
Target: 5-HT7 (Homo sapiens, UniProt P34969)
Sequence (P34969 whole entry): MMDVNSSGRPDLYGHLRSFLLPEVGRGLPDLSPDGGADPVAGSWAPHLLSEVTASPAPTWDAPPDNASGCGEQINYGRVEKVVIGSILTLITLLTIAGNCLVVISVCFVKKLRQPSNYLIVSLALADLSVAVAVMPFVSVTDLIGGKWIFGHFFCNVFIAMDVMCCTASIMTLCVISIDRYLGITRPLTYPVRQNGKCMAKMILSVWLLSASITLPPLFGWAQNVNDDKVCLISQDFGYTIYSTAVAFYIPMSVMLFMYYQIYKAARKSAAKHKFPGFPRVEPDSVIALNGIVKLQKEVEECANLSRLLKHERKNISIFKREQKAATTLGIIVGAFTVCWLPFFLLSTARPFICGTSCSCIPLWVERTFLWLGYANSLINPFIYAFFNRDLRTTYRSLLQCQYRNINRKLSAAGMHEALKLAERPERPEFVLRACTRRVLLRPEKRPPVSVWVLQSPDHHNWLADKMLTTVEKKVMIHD
Experiment: Radioligand displacement, 5-HT7
Assay type: binding
pKi: −log10 of the molar value.

molecule	pKi
N=C(N)Nc1ccc2[nH]c3c(c2c1)C[C@@]1(O)[C@H]2Cc4ccc(O)c5c4[C@@]1(CCN2CC1CC1)[C@H]3O5 [GNTI, 5′-guanidinonaltrindole]	≤ 5.00
Oc1ccc2c3c1O[C@H]1c4[nH]c5c(c4C[C@@]4(O)[C@@H](C2)N(CC2CC2)CC[C@]314)C[C@@]1(O)[C@H]2Cc3ccc(O)c4c3[C@@]1(CCN2CC1CC1)[C@H]5O4 [nor-BNI, Nor-binaltorphimine]	≤ 5.00

###

Listed here: items and their measured Ki.
Target: 5-HT2c (Homo sapiens)
Sequence (P28335 33-458): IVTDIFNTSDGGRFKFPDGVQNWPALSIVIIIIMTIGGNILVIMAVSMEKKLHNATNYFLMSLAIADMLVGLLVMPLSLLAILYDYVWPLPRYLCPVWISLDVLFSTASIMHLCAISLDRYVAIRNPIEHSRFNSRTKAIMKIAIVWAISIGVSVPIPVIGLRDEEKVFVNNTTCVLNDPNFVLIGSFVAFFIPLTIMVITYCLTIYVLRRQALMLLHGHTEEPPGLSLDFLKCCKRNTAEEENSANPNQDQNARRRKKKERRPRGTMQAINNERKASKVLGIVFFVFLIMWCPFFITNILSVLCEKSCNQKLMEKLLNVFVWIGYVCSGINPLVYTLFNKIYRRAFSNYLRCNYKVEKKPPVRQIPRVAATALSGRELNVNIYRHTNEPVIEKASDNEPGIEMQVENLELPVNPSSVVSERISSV
Experiment: Radioligand displacement, 5-HT2c
Assay type: binding
parameter: Ki

smiles_notation	experimental_result
N=C(N)Nc1ccc2[nH]c3c(c2c1)C[C@@]1(O)[C@H]2Cc4ccc(O)c5c4[C@@]1(CCN2CC1CC1)[C@H]3O5	≥ 10 µM
Oc1ccc2c3c1O[C@H]1c4[nH]c5c(c4C[C@@]4(O)[C@@H](C2)N(CC2CC2)CC[C@]314)C[C@@]1(O)[C@H]2Cc3ccc(O)c4c3[C@@]1(CCN2CC1CC1)[C@H]5O4	≥ 10 µM
